src = ChEMBL document CHEMBL3885861

KIDNEY_TOTAL values for the compounds below.
Species: Rattus norvegicus
PROCEDURE_DETAILS: Open TG-GATES - Regimen: Single
Assay type: toxicity, organism-based, Sprague-Dawley
Parameters: regimen Single, gender Male, age 6 weeks
EXPERIMENTAL_CONDITIONS: in vivo, po, 0 mg/kg, 24 h, tissue Kidney, route gavage, dose level Control
READOUT_TYPE: KIDNEY_TOTAL

- COMPOUND: "CN(C)[C@@H]1C(O)=C(C(N)=O)C(=O)[C@@]2(O)C(O)=C3C(=O)c4c(O)cccc4[C@@](C)(O)[C@H]3C[C@@H]12"
  RESULT: "1.8 g"
- COMPOUND: "C1CCC(C(CC2CCCCN2)C2CCCCC2)CC1 (stereo not drawn)"
  RESULT: "2.1 g"
- COMPOUND: "Cc1cccc(Nc2ccccc2C(=O)O)c1C"
  RESULT: "2.1 g"
- COMPOUND: "O=[N+]([O-])c1ccc2c(c1)Cc1ccccc1-2"
  RESULT: "1.9 g"
- COMPOUND: "COc1cc([C@@H]2c3cc4c(cc3[C@@H](O[C@@H]3O[C@@H]5CO[C@@H](C)O[C@H]5[C@H](O)[C@H]3O)[C@H]3COC(=O)[C@H]23)OCO4)cc(OC)c1O [ETOPOSIDE]"
  RESULT: "2 g"
- COMPOUND: "CN1C(C(=O)Nc2ccccn2)=C(O)c2sc(Cl)cc2S1(=O)=O"
  RESULT: "2 g"
- COMPOUND: "CC(=O)Nc1nnc(S(N)(=O)=O)s1 [ACETAZOLAMIDE]"
  RESULT: "2 g"
- COMPOUND: "Clc1c(Cl)c(Cl)c(Cl)c(Cl)c1Cl"
  RESULT: "2.1 g"
